test system: MILI (PIWIL2) piRISC loaded with L1MC piRNA (26 nt); test: pre-steady-state target cleavage rate (min^-1); guide: L1MC piRNA 5'p-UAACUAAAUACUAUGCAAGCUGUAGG; higher = faster piRNA-guided slicing of the target; settings: auxiliary factor: 500 nM mouse GTSF1;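 note: 1 nM active piRISC with 0.1 nM target library at 33 °C single turnover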
Metric name: pre-steady-state target cleavage rate
Form rule: numeric answer, no unit written next to it.

Some solved entries appear below for comparison.
In [3]: df
Out[3]:
                     sequence_data   value
0   UCCUCCUACAGCUUGGAUAGUAUUUAGUUA   0.294
1    UCCUGCUACAGCUUCAUAGUAUUUAGUUA   0.231
2   UCCUGGAUGAGCUUGCAUAGUAUAUAGUUA    0.24
3   UCCUGGAUCAGCUUGCAUUGUUUUUAGUUA  0.0121
4  UCCUGGUACAGCUUGCAUAGUAUAUUAGUUA    0.26

Sample `UCCUGGAUGAGCUUGCUUAGUAUUAAGUUA` — what was its pre-steady-state target cleavage rate?
0.128

Consider the sequence shown here: `UCCUGGAUGUCGAUGCAUAAUAUUUAGUUA` What is its recorded pre-steady-state target cleavage rate?
0.0556

* * *

pre-steady-state target cleavage rate values by entry
tested on: MILI (PIWIL2) piRISC loaded with L1MC piRNA (26 nt); test: pre-steady-state target cleavage rate (min^-1); guide: L1MC piRNA 5'p-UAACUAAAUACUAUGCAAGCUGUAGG; MIWI and MILI are mouse PIWI proteins and EfPiwi is from a freshwater sponge; tags in brackets are library labels; higher = faster piRNA-guided slicing of the target; conditions: auxiliary factor: 500 nM mouse GTSF1;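 note: 1 nM active piRISC with 0.1 nM target library at 33 °C single turnover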
Lab note: jot the number down without any unit.

Field: example entries. Status: answers known.
                     sequence_data                            metric_name   value
0   UCCUGGUACAGCAUCCAUAGUAUUUAGUUA  pre-steady-state target cleavage rate   0.262
1   UCCUGGAACAGCUAGCAUAGUAUUUUCAAA  pre-steady-state target cleavage rate  0.0419
2   UCCUGGUACAGCUUGCAUAGUUUUUUGUUA  pre-steady-state target cleavage rate  0.0564
3   UCCUGGAUGUGCUUGCAUUGUAUUUACUUA  pre-steady-state target cleavage rate  0.0239
4  UCCUCCUACAGGCUUGCAUAGUAUUUAGUUA  pre-steady-state target cleavage rate   0.268
5   UCCUGGAUCAGCUUGCAUAGAAUUAAGUUA  pre-steady-state target cleavage rate  0.0383
6  UCCUGGUACAGCUUAGCAUAGUAUUUAGUUA  pre-steady-state target cleavage rate   0.296
7  UCCUCCUACAAGCUUGCAUAGUAUUUAGUUA  pre-steady-state target cleavage rate   0.222
8   UCCUGGUACUGCUUGCAUAGUUUUUAGUUA  pre-steady-state target cleavage rate  0.0403
9   UCCUGGAUGUCCUUGCAUAGUAUUUAGAAA  pre-steady-state target cleavage rate  0.0838

Param item = `UCCUGGAUGAGCUUGCAUAGUAUUUAGUAUA` ; retrieve measured pre-steady-state target cleavage rate.
0.218

Given the sequence `UCCUGGAUCAGCUUGCAUAGUAUAAACAAA` , what is its reported pre-steady-state target cleavage rate?
0.0772

Return reported pre-steady-state target cleavage rate; argument: `UCCUGGUACACGAUGCAUAGUAUUUAGUUA`
0.252

Entry `UCCUGCUACAGCUUGUCAUAGUAUUUAGUUA` : reported pre-steady-state target cleavage rate = ?
0.211
